FYI, the data here is from patent US9783536B2.

# Target of assay: human PI3Kα protein (Homo sapiens)
# Construct: purchased Carna Biosciences, Inc; host or cells: baculovirus expression system
# Sequence (P42336 whole entry): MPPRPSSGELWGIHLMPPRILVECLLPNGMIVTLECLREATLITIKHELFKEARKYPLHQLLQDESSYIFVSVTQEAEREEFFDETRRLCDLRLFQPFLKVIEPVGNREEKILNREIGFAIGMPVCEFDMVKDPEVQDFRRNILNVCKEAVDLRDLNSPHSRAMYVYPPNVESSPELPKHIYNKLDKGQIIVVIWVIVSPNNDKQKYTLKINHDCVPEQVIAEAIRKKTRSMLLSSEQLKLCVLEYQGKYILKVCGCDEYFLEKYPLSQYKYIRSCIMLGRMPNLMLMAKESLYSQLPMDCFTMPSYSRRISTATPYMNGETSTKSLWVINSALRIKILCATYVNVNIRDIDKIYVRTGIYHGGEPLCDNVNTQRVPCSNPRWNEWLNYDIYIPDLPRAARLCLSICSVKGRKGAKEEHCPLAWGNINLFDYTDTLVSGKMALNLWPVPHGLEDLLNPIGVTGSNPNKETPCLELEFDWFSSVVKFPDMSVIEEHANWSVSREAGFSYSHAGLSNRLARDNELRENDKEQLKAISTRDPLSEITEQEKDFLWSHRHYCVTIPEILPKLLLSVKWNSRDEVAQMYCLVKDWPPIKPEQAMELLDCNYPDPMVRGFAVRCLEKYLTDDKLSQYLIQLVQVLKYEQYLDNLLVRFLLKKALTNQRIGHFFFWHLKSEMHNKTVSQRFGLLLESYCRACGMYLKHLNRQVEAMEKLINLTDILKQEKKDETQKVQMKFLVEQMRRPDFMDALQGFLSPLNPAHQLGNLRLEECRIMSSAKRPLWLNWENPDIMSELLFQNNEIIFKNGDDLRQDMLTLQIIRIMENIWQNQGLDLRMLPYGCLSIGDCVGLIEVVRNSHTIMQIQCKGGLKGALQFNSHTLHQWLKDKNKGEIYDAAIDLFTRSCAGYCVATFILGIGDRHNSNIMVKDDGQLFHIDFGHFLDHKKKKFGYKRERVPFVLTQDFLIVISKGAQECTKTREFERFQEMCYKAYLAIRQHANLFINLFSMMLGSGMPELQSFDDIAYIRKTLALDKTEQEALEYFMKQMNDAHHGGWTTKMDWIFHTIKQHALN
# Sequence (P27986 whole entry partner): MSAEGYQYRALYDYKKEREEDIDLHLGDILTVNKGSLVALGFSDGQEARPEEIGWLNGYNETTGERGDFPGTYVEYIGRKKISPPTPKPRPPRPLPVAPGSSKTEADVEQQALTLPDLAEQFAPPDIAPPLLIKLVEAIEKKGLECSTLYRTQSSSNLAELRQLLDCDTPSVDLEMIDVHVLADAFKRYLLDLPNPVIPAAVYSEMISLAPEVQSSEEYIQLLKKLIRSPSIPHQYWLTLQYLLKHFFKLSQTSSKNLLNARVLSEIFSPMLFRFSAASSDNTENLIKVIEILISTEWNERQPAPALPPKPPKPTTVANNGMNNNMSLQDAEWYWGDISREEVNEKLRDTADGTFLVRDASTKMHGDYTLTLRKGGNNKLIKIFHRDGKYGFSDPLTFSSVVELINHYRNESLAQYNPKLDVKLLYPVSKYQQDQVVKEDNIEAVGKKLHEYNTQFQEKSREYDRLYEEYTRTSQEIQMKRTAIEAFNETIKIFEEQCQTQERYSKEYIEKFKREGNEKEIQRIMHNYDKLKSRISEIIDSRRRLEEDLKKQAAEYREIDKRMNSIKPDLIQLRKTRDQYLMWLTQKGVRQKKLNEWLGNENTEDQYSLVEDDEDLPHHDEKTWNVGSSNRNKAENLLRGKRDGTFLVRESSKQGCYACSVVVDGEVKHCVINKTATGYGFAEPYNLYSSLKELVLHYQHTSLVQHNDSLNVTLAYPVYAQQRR
# Assay summary: PI3Kα enzyme assay (ADP-Glo)
# Type: biochemical
# Condition: read-out: PI3Kα enzyme inhibitory activity
Experimental readout: IC50

Consider the worked cases shown below.
CC(O)c1nnc(Nc2ccc3ncc(-c4cnn(CCCN5CCCC5)c4)cc3n2)s1 (stereo not shown): < 1000 nM
CCn1cc(-c2cnc3ccc(Nc4cc(C(C)C)cnn4)nc3c2)c(-c2cccnc2)n1: < 1000 nM
COc1cc(-c2ccnc3ccc(Nc4nnc(C(C)C)s4)nc23)ccn1: 10000 to 50000 nM

Incoming: Dear colleague, I am looking for the recorded IC50 of the following molecule: `CCCn1cc(-c2cnc3ccc(Nc4cc(C(C)C)cnn4)nc3c2)cn1`
Outgoing: < 1000 nM

* * *

# Target of assay: human PI3Kα protein (Homo sapiens)
# Construct: purchased Carna Biosciences, Inc; host or cells: baculovirus expression system
# Assay summary: PI3Kα enzyme assay (ADP-Glo)
# Format: biochemical
# Condition: read-out: PI3Kα enzyme inhibitory activity
pIC50: −log10 of the molar value.
Overview of recorded pIC50 for various compounds

Consider the worked cases shown below.
CC(C)c1cnnc(Nc2ccc3ncc(-c4cnn(CCCN5CCOC[C@H]5C)c4)cc3n2)c1: > 6.00
CC(C)c1cnnc(Nc2ccc3ncc(N4CCC(C(F)(F)F)C4)cc3n2)c1 (centres unmarked): 5.00 to 6.00

Incoming: // lookup pIC50 | system=human PI3Kα protein (Homo sapiens) | key= `c1cc(Nc2cnc3ccc(Nc4nnc(C5CCCC5)s4)nc3c2)ccc1CN1CCOCC1`
Outgoing: > 6.00

Incoming: Ok, now CC(C)c1cnnc(Nc2ccc3ncc(-c4cnn(CCCN5CCOCC5CO)c4)cc3n2)c1 (centres unmarked)
Outgoing: > 6.00

Incoming: Ok, now `CC(C)c1cnnc(Nc2ccc3ncc(-c4cnn(CCCN5C[C@@H](C)N(C(=O)N(C)C)[C@@H](C)C5)c4)cc3n2)c1`
Outgoing: > 6.00
